target: human Edg-1 (S1P1) (Homo sapiens); construct: expressed in transfected cells; host or cells: HEK-293; experiment: S1P1 binding assay: inhibition of [33P]-S1P binding to membrane fraction of HEK-293 cells transferred with the human Edg-1 (S1P1) gene; conditions: test compound at 10 μM; inhibition of [33P]-S1P binding to the membrane fraction of HEK-293 cells expressing human Edg-1 (S1P1)
Recorded measurements of inhibition at 10 µM, one per entry
Quantity Name: inhibition at 10 µM (%)

>>> recorded_value("CCn1c(Oc2ccc3cc[nH]c3c2)nnc1[C@@H](C)NS(=O)(=O)c1c(C)c(C)c(C)c(C)c1C")
80.4
>>> recorded_value("CCn1c(Oc2cccc(N3CCC(=O)CC3)c2)nnc1[C@@H](C)NS(=O)(=O)c1ccc(Cl)c(Cl)c1")
99.5
>>> recorded_value("CCn1c(Oc2cccc(N3CCN(C)CC3)c2)nnc1[C@@H](C)NS(=O)(=O)c1ccc(Cl)c(Cl)c1Cl")
99.9
>>> recorded_value("CCn1c(Oc2ccc(F)cc2)nnc1[C@@H](C)NS(=O)(=O)c1cc(F)cc(Cl)c1C")
87.1
>>> recorded_value("CCn1c(Oc2ccc3cc[nH]c3c2)nnc1[C@@H](C)NS(=O)(=O)c1sc2ccc(Cl)cc2c1C")
62.8
>>> recorded_value("CCn1c(Oc2ccc(F)cc2)nnc1[C@@H](C)NS(=O)(=O)c1ccc(F)cc1")
97.2
>>> recorded_value("CCn1c(Oc2ccc(F)cc2)nnc1[C@@H](C)NS(=O)(=O)c1ccc2nsnc2c1")
107
>>> recorded_value("CCn1c(Oc2ccc(F)cc2)nnc1[C@@H](C)NS(=O)(=O)c1cc(Cl)ccc1Cl")
68.4
>>> recorded_value("CCn1c(Oc2ccc3ncccc3c2)nnc1[C@@H](C)NS(=O)(=O)c1ccc(Cl)c(Cl)c1")
90.7
>>> recorded_value("C[C@@H](NS(=O)(=O)c1ccc(Cl)c(Cl)c1)c1nnc(Oc2cccc(N3CCN(C)CC3)c2)n1C1CC1")
97.1
>>> recorded_value("CCn1c(Oc2ccc(C3CCCCC3)cc2)nnc1[C@@H](C)NS(=O)(=O)c1ccc(Cl)c(Cl)c1")
103
>>> recorded_value("CCn1c(Oc2ccc(F)cc2)nnc1[C@@H](C)NS(=O)(=O)c1ccc(Cl)c(S(N)(=O)=O)c1")
52.2
>>> recorded_value("CCn1c(Oc2cc(C)nc(C)c2)nnc1[C@@H](C)NS(=O)(=O)c1ccc(Cl)c(Cl)c1")
87.6
>>> recorded_value("CCn1c(Oc2ccc3ccncc3c2)nnc1[C@@H](C)NS(=O)(=O)c1ccc(Cl)c(Cl)c1")
104
>>> recorded_value("CCn1c(Oc2ccc(F)cc2)nnc1[C@@H](C)NS(=O)(=O)c1cc(F)c(Br)cc1F")
88.9
>>> recorded_value("CCn1c(Oc2cccc(NC(=O)N(C)C)c2)nnc1[C@@H](C)NS(=O)(=O)c1ccc(Cl)c(Cl)c1")
93
>>> recorded_value("CCn1c(Sc2ccccc2)nnc1[C@@H](Cc1ccccc1)NS(=O)(=O)c1ccc(Cl)c(Cl)c1")
103
>>> recorded_value("CCn1c(Oc2cccc(N3CCN(C)CC3)c2)nnc1[C@@H](C)NS(=O)(=O)c1ccc(F)c(Cl)c1")
104
>>> recorded_value("CCn1c(Oc2ccc3c(c2)NC(=O)CC3)nnc1[C@@H](C)NS(=O)(=O)c1ccc(Cl)c(Cl)c1")
105
>>> recorded_value("CCn1c(Oc2cccc(N3CCCC3)c2)nnc1[C@@H](C)NS(=O)(=O)c1ccc(Cl)c(Cl)c1")
104
>>> recorded_value("CCn1c(Oc2ccc(F)cc2)nnc1C(C)(C)NS(=O)(=O)c1c(C)cc(C)cc1C")
52.5
>>> recorded_value("CCn1c(Oc2ccc3cc[nH]c3c2)nnc1[C@@H](C)NS(=O)(=O)c1ccc(OC)c(OC)c1")
86.5
>>> recorded_value("CCn1c(Oc2ccc(F)cc2)nnc1[C@@H](C)NS(=O)(=O)CCc1cccc2ccccc12")
94.6
>>> recorded_value("CCn1c(Oc2ccc(OC)cc2)nnc1[C@@H](C)NS(=O)(=O)c1ccc(Cl)c(Cl)c1")
98.5
>>> recorded_value("CCn1c(Oc2ccc(C)cc2)nnc1[C@@H](C)NS(=O)(=O)c1ccc(Cl)c(Cl)c1")
98.7
>>> recorded_value("CCn1c(Oc2ccc3cc[nH]c3c2)nnc1[C@@H](C)NS(=O)(=O)c1cc(C(F)(F)F)cc(C(F)(F)F)c1")
66.9
>>> recorded_value("CCn1c(Oc2ccc3cc[nH]c3c2)nnc1[C@@H](C)NS(=O)(=O)c1c(C)c(C)cc(C)c1C")
71.6
>>> recorded_value("CCn1c(Oc2ccc3cc[nH]c3c2)nnc1[C@@H](C)NS(=O)(=O)c1cccc2ccccc12")
88.5
>>> recorded_value("CCn1c(Oc2ccc(F)cc2)nnc1[C@@H](C)NS(=O)(=O)c1cccc(C#N)c1")
72.9
>>> recorded_value("CCn1c(Oc2ccc3cc[nH]c3c2)nnc1[C@@H](C)NS(=O)(=O)c1cc(C)c(Cl)cc1Cl")
97.3

###

Recorded measurements of melting point, one per entry
Quantity Name: melting point

>>> recorded_value("CCn1c(Oc2cccc(N3CCN(C)CC3)c2)nnc1[C@@H](C)NS(=O)(=O)c1ccc2cc(Cl)ccc2c1")
"218 to 221.5 °C"
>>> recorded_value("CCn1c(Oc2ccc(F)cc2)nnc1[C@@H](C)NS(=O)(=O)c1ccc2ccccc2c1")
"167 to 170 °C"
>>> recorded_value("CCn1c(Oc2ccc(Cl)cc2)nnc1[C@@H](C)NS(=O)(=O)c1ccc2ccccc2c1")
"169 to 173 °C"
>>> recorded_value("CCn1c(Oc2ccc(F)cc2)nnc1[C@@H](C)NS(=O)(=O)c1ccc(C(F)(F)F)cc1")
"182.5 to 183.5 °C"
>>> recorded_value("CCn1c(Oc2ccc(OC)cc2)nnc1[C@@H](C)NS(=O)(=O)c1ccc2c(Cl)cccc2c1")
"167.5 to 169 °C"
>>> recorded_value("CCn1c(Oc2cccc(N3CCC3)c2)nnc1[C@@H](C)NS(=O)(=O)c1ccc(Cl)c(Cl)c1")
"177 to 179 °C"
>>> recorded_value("CCn1c(Oc2ccc(F)cc2)nnc1C1(NS(=O)(=O)c2ccc(Cl)c(Cl)c2)CC1")
"255 to 260 °C"

###

target: human Edg-1 (S1P1) (Homo sapiens, UniProt P21453); construct: expressed in transfected cells; host or cells: HEK-293; assay: S1P1 binding assay: inhibition of [33P]-S1P binding to membrane fraction of HEK-293 cells transferred with the human Edg-1 (S1P1) gene; details: test compound 10 μM; inhibition of [33P]-S1P binding, membrane fraction
Sequence (P21453 whole entry): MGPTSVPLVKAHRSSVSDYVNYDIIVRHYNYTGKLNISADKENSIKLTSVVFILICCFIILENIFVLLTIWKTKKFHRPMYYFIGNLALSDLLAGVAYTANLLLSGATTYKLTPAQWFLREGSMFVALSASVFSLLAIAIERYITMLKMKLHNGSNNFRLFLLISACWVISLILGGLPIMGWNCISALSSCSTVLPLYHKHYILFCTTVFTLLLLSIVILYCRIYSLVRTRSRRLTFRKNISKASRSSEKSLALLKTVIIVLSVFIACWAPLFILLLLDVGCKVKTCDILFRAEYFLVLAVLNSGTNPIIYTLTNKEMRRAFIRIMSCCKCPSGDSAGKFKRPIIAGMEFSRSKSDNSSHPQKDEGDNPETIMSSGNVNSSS
Quantity Name: inhibition at 10 µM (%)

>>> recorded_value("CCn1c(Oc2cccc(N3CCN(C)CC3)c2)nnc1[C@@H](C)NS(=O)(=O)c1c(C)nn(C)c1C")
53.9
>>> recorded_value("CCn1c(Oc2cccc(N3CCN(C)CC3)c2)nnc1[C@@H](C)NS(=O)(=O)c1cc(Cl)ccc1Cl")
98.6
>>> recorded_value("CCn1c(Oc2cccc(N3CCN(C)CC3)c2)nnc1[C@@H](C)NS(=O)(=O)c1cccc(Cl)c1Cl")
104
>>> recorded_value("CCn1c(Oc2cccc(N3CCN(C)CC3)c2)nnc1[C@@H](C)NS(=O)(=O)c1ccc2c(c1)CCC2")
97.4

###

target: human Edg-1 (S1P1) (Homo sapiens, UniProt P21453); construct: expressed in transfected cells; host or cells: HEK-293; test: S1P1 binding assay: inhibition of [33P]-S1P binding to membrane fraction of HEK-293 cells transferred with the human Edg-1 (S1P1) gene; conditions: test compound 10 μM; inhibition of [33P]-S1P binding, membrane fraction
Recorded measurements of inhibition at 10 µM, one per entry
Quantity Name: inhibition at 10 µM (%)

>>> recorded_value("CCn1c(Oc2cccc(N3CCN(C)CC3)c2)nnc1[C@@H](C)NS(=O)(=O)c1ccccc1C#N")
83.2
>>> recorded_value("CCn1c(Oc2cccc(N3CCN(C)CC3)c2)nnc1[C@@H](C)NS(=O)(=O)c1cccc(C(C)=O)c1")
99
>>> recorded_value("CCn1c(Oc2cccc(N3CCN(C)CC3)c2)nnc1[C@@H](C)NS(=O)(=O)c1cccc2nonc12")
51
>>> recorded_value("CCn1c(Oc2cccc(N3CCN(C)CC3)c2)nnc1[C@@H](C)NS(=O)(=O)c1ccc(C#N)cc1")
105
>>> recorded_value("CCn1c(Oc2cccc(N3CCN(C)CC3)c2)nnc1[C@@H](C)NS(=O)(=O)c1cc(F)c(Br)cc1F")
107
>>> recorded_value("CCn1c(Oc2cccc(N3CCN(C)CC3)c2)nnc1[C@@H](C)NS(=O)(=O)c1cc(C)c(Cl)cc1C")
114
>>> recorded_value("CCn1c(Oc2ccc3cc[nH]c3c2)nnc1[C@@H](C)NS(=O)(=O)c1ccc(OC)cc1OC")
74.5
>>> recorded_value("CCC(NS(=O)(=O)c1ccc2c(Cl)cccc2c1)c1nnc(Oc2cccc(N3CCN(C)CC3)c2)n1CC (stereo not drawn)")
101
>>> recorded_value("CCn1c(Oc2cccc(N3CCN(C)CC3)c2)nnc1[C@@H](C)NS(=O)(=O)c1cccc(C)c1")
101
>>> recorded_value("CCn1c(Oc2cccc(N3CCN(C)CC3)c2)nnc1[C@@H](C)NS(=O)(=O)c1ccc(F)c2ccccc12")
108
>>> recorded_value("CCn1c(Oc2cccc(N3CCN(C)CC3)c2)nnc1[C@@H](C)NS(=O)(=O)c1ccc2c(c1)OCCO2")
107
>>> recorded_value("CCn1c(Oc2cccc(N3CCN(C)CC3)c2)nnc1[C@@H](C)NS(=O)(=O)c1csc2ccccc12")
95.4
>>> recorded_value("CCn1c(Oc2cccc(N3CCN(C)CC3)c2)nnc1[C@@H](C)NS(=O)(=O)c1ccc(-c2ccnc(SC)n2)s1")
59.5
>>> recorded_value("CCCc1ccc(S(=O)(=O)N[C@H](C)c2nnc(Oc3cccc(N4CCN(C)CC4)c3)n2CC)cc1")
96.7
>>> recorded_value("CCn1c(Oc2cccc(N3CCN(C)CC3)c2)nnc1[C@@H](C)NS(=O)(=O)c1cccc2nsnc12")
59.9
